Target: JCV infectious virus, isolates Mad-1 and Mad-4 (VP1) (JC virus)
Assay: cell-based or functional assay
# strict inequality: neutralization EC50 < 0.1 µg/mL yields label 1, everything else yields label 0

Lab note: neutralization EC50 threshold 0.1 µg/mL. Does this binder come in strictly under it? 2077-28-2 (antibody, V domains shown) VH: EVQLQQSGPELVKPGASMKISCKASGYSFTGYTMNWVKQSHGKNLEWIGLFNPYNGGATYNQRFKGKATLTVDKSSSTAYMDLLSLTSEDSAVYYCTRLRKYGIGDDFFDYWGQGTTLTVSS VL: DIVMTQSHKFMSTSVGDRVSITCKASQDVGTAVAWYQQKPGQSPKLLIYWASTRHTGVPDRFTGSGSGTDFTLTISNVQSEDLADYFCQQYSTYTYTFGGGTKLEIK label 0

Is the reported neutralization EC50 for 2077-7-5 (antibody, V domains shown) VH: EVQLQQSGPELVKPGASMKISCKASGYSFTGYTMNWVKQSHGKNLEWIGLFNPYNGGINYNQKFKGKATLTVDKSSSTAYMELLSLTSEDSAVYYCARLRYYGIGDDFFDYWGQGTSLTVSS VL: DIVMTQSHKFMSTSVGDRVSITCKASRDVGTAVAWYQQKPGQSPKLLIYWASTRHTGVPDRFTGSGSGTDFTLTISNVQSEDLADYFCQQYSNYPYTFGGGTKLEMK strictly below 0.1 µg/mL? label 1

Hi there! Is neutralization EC50 for 2077-26-1 (antibody, V domains shown) VH: EVQLQQSGPDLVKPGASMKLSCKASGYSFTGYTMNWVKQSHGKNLEWIGLFNPYNGGPSYNQKFKGKATLTVDKSSSTAYMELLSLTPEDSAVYYCARLRYYGIGDDFFDYWGQGTTLTVSS VL: DIVMTQSHKFMSTSVGDRVSITCKASQDVGTAVAWYQEKPGQSPKLLIYWASTRHTGVPDRFTGSGSGTDFTLTISNVQSEDLAYYFCQQYSNYPYTFGGGTKLEIK below 0.1 µg/mL, do you know? label 0

Please check: neutralization EC50 for 2077-4-1 (antibody, V domains shown) VH: EVQLQQSGPELVKPGASMKISCKASGYSFTGYTMNWVKQSHGENLEWIGLFNPYNGGTRYNQKFKGKATLTVDKSSSTAYMELLSLTSEDSAVYYCARLRNYGIGDDFFDYWGQGTTLTVSS VL: DIVMTQSHKFMSTSVGDRVSITCKASQDVGTAVAWYQQKPGQSPKLLIYWASTRHTGVPDRFTGSGSGTDFTLTISNVQSEDLTDYFCQQYSNYPYTFGGGTKLEIK , strictly under 0.1 µg/mL or not? label 0

Identify whether the binder 2077-10-1 (antibody, V domains shown) VH: EVQLQQSGPELVKPGASMKISCKASGYSFTGYTMNWMKQGHGKNLEWIGLFNPYNGGPNYNQKFKGKATLTVDKSSSTAYMELLSLTSEDSAVYYCARLRYYGIGDDFFDYWGQGTTLTVSS VL: DIVMTQSHKFMSTSVGDRVSITCKASQDVGTAVAWYQQKPGQSPKLLIYWASTRHTGVPDRFTGSGSGTDFTLTITNVQSEDLTDYFCQQYSSYPYTFGGGTKLEIK records neutralization EC50 below 0.1 µg/mL. label 0
